These measurements were taken from patent US10562857B2.

Target: Cav3.2 channel (Homo sapiens)
Construct: expressed in transfected cells; host or cells: HEK-293, tetracycline inducible expression system (Invitrogen)
Test: Whole-cell patch clamp of T-type Cav3.2 channel expressed in HEK293 cells
Type: cell-based
Conditions: HEK293; Table 1 primary screening; 3 μM as indicated in cell; read-out: % inhibition at 3 μM
Text: Cav3.1, Cav3.2 or Cav3.3 channels were expressed in human embryonic kidney (HEK)-293 cells using a tetracycline inducible expression system (Invitrogen). […]
Class YES: inhibition at 3 µM at least 40%. Class NO: inhibition at 3 µM below 40%.

{"compound": "CC(C)CN1CCC2(CC1)CC2NC(=O)c1ccc(Cl)c(Cl)c1 (stereo not drawn) [Example 6]", "category_label": "NO"}
{"compound": "CC(C)(C)NC(=O)CN1CCC2(CC1)CC2NC(=O)c1ccccc1 (stereo not drawn) [Example 4]", "category_label": "NO"}
{"compound": "O=C(NC1CC12CCN(CCc1ccccc1)CC2)c1ccccc1 (stereo not drawn) [Example 3]", "category_label": "YES"}
{"compound": "CC(C)(C)CCN1CCC2(CC1)CC2NC(=O)c1ccccc1 (stereo not drawn) [Example 2]", "category_label": "YES"}
{"compound": "O=C(CCc1cccc(Cl)c1)Nc1nnc(-c2ccccc2)o1 [Example 119]", "category_label": "NO"}
{"compound": "O=C(NC1CC12CCN(Cc1ccccc1)CC2)c1ccccc1 (stereo not drawn) [Example 5]", "category_label": "YES"}

----------
Experiment: Metabolic stability in rat liver microsomes
Type: in vitro ADME

{"molecule": "CC(C)(C)NC(=O)CN1CCC2(CC1)CC2NC(=O)c1cc(F)cc(Cl)c1 (single isomer, unassigned) [Example 128]", "half-life [h]": 5.25}

----------
Test: Metabolic stability in rat liver microsomes
Type: in vitro ADME
From the text: In vitro data of metabolic stability and protein binding as well as in vivo pharmacokinetic data for compounds of the invention can be generated using the techniques disclosed in, e.g., Obach, R. S. et al., J. Pharmacol. Exp. Ther. 283(1): 46-58 (1997), which is hereby incorporated by reference in its entirety. […]
measured_endpoint: microsomal CLint

{"compound": "CC(C)(C)NC(=O)CN1CCC2(CC1)CC2NC(=O)c1cc(F)cc(Cl)c1 (single isomer, unassigned)", "endpoint_value": "2.2 µL/min/mg"}

----------
Target: Cav3.2 channel (Homo sapiens, UniProt O95180)
Construct: expressed in transfected cells; host or cells: HEK-293, tetracycline inducible expression system (Invitrogen)
Sequence (O95180 whole entry): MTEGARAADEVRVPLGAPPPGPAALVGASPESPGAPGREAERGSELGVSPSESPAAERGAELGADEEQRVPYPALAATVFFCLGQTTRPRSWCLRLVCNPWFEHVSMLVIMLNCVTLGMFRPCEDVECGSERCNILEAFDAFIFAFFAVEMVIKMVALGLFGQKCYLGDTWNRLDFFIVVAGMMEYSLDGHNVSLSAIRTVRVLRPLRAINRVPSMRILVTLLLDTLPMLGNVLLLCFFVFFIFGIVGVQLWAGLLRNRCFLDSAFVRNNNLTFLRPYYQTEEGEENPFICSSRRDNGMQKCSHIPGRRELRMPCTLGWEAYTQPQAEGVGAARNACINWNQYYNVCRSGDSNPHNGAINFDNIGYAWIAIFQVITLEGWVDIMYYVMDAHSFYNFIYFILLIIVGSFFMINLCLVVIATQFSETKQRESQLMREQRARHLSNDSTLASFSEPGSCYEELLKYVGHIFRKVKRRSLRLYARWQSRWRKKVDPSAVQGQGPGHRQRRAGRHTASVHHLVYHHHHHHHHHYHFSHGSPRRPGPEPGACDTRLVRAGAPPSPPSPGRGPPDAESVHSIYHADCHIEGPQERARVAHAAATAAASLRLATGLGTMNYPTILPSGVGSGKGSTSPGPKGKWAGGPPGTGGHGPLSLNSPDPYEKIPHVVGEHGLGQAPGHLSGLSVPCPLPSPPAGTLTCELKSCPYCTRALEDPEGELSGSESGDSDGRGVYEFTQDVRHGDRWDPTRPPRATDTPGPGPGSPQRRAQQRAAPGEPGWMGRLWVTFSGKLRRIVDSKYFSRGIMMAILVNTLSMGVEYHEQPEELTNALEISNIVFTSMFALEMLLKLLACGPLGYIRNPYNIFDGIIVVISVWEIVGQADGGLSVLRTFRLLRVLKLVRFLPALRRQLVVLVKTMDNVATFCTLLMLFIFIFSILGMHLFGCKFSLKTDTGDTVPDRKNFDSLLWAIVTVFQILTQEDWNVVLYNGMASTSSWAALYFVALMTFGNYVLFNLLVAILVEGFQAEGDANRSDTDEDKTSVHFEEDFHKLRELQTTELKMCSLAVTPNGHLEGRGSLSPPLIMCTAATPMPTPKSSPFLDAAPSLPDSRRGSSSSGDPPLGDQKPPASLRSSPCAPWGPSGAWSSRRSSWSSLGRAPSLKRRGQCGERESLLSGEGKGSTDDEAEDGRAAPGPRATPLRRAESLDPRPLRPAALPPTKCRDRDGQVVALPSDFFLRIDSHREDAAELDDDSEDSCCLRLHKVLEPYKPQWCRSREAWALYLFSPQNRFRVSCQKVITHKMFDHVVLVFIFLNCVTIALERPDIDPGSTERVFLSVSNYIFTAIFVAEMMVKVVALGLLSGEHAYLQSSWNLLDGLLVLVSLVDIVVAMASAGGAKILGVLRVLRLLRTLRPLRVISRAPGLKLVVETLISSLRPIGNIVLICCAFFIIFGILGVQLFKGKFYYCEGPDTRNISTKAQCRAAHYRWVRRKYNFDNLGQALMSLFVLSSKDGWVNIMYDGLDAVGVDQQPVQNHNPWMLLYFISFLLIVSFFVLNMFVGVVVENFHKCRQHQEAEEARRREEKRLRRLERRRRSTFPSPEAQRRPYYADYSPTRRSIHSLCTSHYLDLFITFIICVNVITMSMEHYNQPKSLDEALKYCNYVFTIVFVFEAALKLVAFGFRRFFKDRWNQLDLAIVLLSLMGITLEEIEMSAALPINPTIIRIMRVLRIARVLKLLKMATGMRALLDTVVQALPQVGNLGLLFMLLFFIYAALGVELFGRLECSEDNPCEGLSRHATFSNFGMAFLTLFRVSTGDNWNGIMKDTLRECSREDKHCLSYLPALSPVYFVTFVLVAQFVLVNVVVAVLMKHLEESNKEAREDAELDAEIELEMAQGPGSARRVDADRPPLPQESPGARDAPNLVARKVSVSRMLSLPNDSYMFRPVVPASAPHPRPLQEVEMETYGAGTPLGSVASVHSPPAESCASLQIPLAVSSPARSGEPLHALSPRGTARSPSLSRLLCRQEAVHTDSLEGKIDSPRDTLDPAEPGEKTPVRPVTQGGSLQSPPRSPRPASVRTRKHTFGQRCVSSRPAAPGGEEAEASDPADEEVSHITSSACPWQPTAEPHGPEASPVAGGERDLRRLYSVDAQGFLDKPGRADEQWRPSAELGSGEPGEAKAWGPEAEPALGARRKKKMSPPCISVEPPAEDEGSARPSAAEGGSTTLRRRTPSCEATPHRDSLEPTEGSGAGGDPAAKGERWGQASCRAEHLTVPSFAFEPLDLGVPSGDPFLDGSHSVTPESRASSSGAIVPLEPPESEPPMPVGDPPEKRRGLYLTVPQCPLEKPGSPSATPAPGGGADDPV
Experiment: Whole-cell patch clamp of T-type Cav3.2 channel expressed in HEK293 cells
Type: cell-based
Details: read-out: IC50
measured_endpoint: IC50 (nM)

{"compound": "CC(C)(C)NC(=O)CN1CCC2(CC1)C[C@H]2C(=O)Nc1cc(C(F)(F)F)cc(C(F)(F)F)c1 (single isomer, unassigned)", "u": "nM", "endpoint_value": 140}

----------
Target: Cav3.2 channel (Homo sapiens)
Construct: expressed in transfected cells; host or cells: HEK-293, tetracycline inducible expression system (Invitrogen)
Assay: Whole-cell patch clamp of T-type Cav3.2 channel expressed in HEK293 cells
Assay type: cell-based
pIC50: −log10 of the molar value.
measured_endpoint: pIC50

{"compound": "O=C(N[C@@H]1CCC12CCN(CCc1ccccc1)CC2)c1ccccc1 [Example 111]", "measured_endpoint": "pIC50", "endpoint_value": 5.82}
